molecular target: PARK7 (Homo sapiens, UniProt Q99497); assay: FP assay with Rhodamine110 probe JYQ-107 (IC50 and hit validation); assay type: binding; design: GST (N, cleaved yes); made in house; host or cells: E. coli BL21(DE3) Rosetta2; details: 37.5 µM compound, PARK7 0.2 μM, 1 h preincubation, JYQ-107 20 nM; read-out: FP assay %Inhibiton (37.5 µM)
Sequence (Q99497 whole entry): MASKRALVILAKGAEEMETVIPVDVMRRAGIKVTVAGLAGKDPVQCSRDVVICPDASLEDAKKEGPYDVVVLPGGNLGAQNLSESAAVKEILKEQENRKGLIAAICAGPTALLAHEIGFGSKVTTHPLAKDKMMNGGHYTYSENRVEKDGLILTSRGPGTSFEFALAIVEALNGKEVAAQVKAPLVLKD
property name: inhibition at 37.5 µM (%)
Answer format: numeric, % implied, no suffix.

molecule	property name	number
O=C(CCl)c1ccc(F)c(Cl)c1	inhibition at 37.5 µM	37.4
O=C(O)c1csc(C(=O)CCl)c1	inhibition at 37.5 µM	100
CC1=NOC(=O)C1CC(=O)O (stereo not drawn)	inhibition at 37.5 µM	100
CC(C)(C)c1ccc(NC(=O)CCl)cc1	inhibition at 37.5 µM	100
O=C(CCl)Nc1ccc(N2CCCCCC2)cc1	inhibition at 37.5 µM	85.1

Could you please provide reported inhibition at 37.5 µM for CC1CCc2ccccc2N1C(=O)CCl (stereo not drawn) ? Thanks!
100

Could you please provide reported inhibition at 37.5 µM for CCC(C)c1ccc(NC(=O)CCl)cc1 (stereo not drawn) ? Thanks!
100

Could you please provide reported inhibition at 37.5 µM for CC(c1ccc(Cl)cc1)N(C)C(=O)CCl (stereo not drawn) ? Thanks!
81.3

Could you please provide reported inhibition at 37.5 µM for O=C(CCl)c1cscn1 ? Thanks!
7.6

Could you please provide reported inhibition at 37.5 µM for O=C(CCl)c1ccc(F)c(C(=O)CCl)c1 ? Thanks!
100

Could you please provide reported inhibition at 37.5 µM for COc1ccccc1CN(C)C(=O)CCl ? Thanks!
66.1

Could you please provide reported inhibition at 37.5 µM for O=C(CCl)Nc1ccc(SC(F)F)cc1 ? Thanks!
65.9
